B1: ELF3 (parent)
chain: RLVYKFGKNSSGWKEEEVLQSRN

Variants of: B1
assay_info: protein stability index of a GFP-peptide fusion (GPS, HEK-293T) (PSI 1-6); higher = more stable;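 also: lentivirally expressed fusions sorted by FACS into six bins by GFP to DsRed ratio, PSI derived from sequencing read proportions per bin multiplied by bin number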
test_conditions: c terminus: native
Use true (1) when the recorded protein stability index is no lower than 3; use false (0) when it is lower.

Solved entries:
RLVYKFGKNGSGWKEEEVLQSRN [S10G]    false (0)
RLVYKFGKNSSGWKEEEVLQSRC [N23C]    false (0)
RLVYKLGKNSSGWKEEEVLQSRN [F6L]    false (0)
KLVYKFGKNSSGWKEEEVLQSRN [R1K]    false (0)
RLVYKWGKNSSGWKEEEVLQSRN [F6W]    false (0)

Query string: Identify whether the reported protein stability index of the following variant is 3 or greater: RLVYKFGKNSSGSKEEEVLQSRN [W13S]
Result string: true (1)
